Cited source: paper PMC4072508

Target: T1, Mcl-1, Q07820
T1 chain: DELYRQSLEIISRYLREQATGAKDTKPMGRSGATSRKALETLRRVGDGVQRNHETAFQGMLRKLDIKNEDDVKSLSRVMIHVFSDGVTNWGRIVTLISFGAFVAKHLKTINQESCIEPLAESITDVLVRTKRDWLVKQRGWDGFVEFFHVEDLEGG
Test: peptide SPOT array, c-Myc-tagged receptor at 1 uM or 100 nM, anti-c-Myc-Cy3
MEASUREMENT_KIND: SPOT signal as a fraction of Bim BH3's signal on the same receptor and array
Note: the reply should be a number with no unit written.

Some binders with known SPOT signal as a fraction of Bim BH3's signal on the same receptor and array results, for comparison:
Fill in: SPOT signal as a fraction of Bim BH3's signal on the same receptor and array of AIPRAEVAELLVHSGDFLVRESQGKQ [FES] is ___
0.03

Fill in: SPOT signal as a fraction of Bim BH3's signal on the same receptor and array of AEVELEYSRGLEKLAERFSSRGGRLG [ARHGAP4] is ___
0.02

Fill in: SPOT signal as a fraction of Bim BH3's signal on the same receptor and array of QEQEQHVPFDDHTYGDQLVSRFPQLN [NCAPH2] is ___
0.04

Fill in: SPOT signal as a fraction of Bim BH3's signal on the same receptor and array of AEVMRQRGINMRYLGKVLELVLRSPA [KIAA0664] is ___
0.69

Fill in: SPOT signal as a fraction of Bim BH3's signal on the same receptor and array of NATHEEVVHLLRNALDEVTITVEYLR [SNTG2] is ___
0.01

Next:
Fill in: SPOT signal as a fraction of Bim BH3's signal on the same receptor and array of PKKKMTLSEIYQWILDNFPYYREAGS [FOXJ3] is ___
0.16

Fill in: SPOT signal as a fraction of Bim BH3's signal on the same receptor and array of RKDAELLCWDLRQSLYPLWSLGREVT [WRAP53] is ___
0.07
